experimental protocol: Interaction with the stable free radical DPPH (reducing activity)
condition summary: 20 min
quantity: RA % 100 μM 20 min (%)
Record the value in %, omitting the unit from your answer.

Sc1nnc(/C=C/c2ccc(Br)cc2)n1-c1ccccc1 : 68
CC(Cc1ccc(O)c(O)c1)C(C)Cc1ccc(O)c(O)c1 (centres unmarked) [NDGA, Nordihydroguaiaretic acid, reference compound] : 87
Sc1nnc(/C=C/c2ccc(OCc3ccc(Br)cc3)cc2)n1-c1ccccc1 : 97

Request: Which RA % 100 μM 20 min reading was recorded for the compound CC(=O)Oc1ccc(/C=C/c2nnc(S)n2-c2ccccc2)cc1 ?
Result: 96

Request: Continue with Fc1ccc(/C=C/c2nnc(Nc3ccccc3)o2)cc1
Result: 92

====

Target chain: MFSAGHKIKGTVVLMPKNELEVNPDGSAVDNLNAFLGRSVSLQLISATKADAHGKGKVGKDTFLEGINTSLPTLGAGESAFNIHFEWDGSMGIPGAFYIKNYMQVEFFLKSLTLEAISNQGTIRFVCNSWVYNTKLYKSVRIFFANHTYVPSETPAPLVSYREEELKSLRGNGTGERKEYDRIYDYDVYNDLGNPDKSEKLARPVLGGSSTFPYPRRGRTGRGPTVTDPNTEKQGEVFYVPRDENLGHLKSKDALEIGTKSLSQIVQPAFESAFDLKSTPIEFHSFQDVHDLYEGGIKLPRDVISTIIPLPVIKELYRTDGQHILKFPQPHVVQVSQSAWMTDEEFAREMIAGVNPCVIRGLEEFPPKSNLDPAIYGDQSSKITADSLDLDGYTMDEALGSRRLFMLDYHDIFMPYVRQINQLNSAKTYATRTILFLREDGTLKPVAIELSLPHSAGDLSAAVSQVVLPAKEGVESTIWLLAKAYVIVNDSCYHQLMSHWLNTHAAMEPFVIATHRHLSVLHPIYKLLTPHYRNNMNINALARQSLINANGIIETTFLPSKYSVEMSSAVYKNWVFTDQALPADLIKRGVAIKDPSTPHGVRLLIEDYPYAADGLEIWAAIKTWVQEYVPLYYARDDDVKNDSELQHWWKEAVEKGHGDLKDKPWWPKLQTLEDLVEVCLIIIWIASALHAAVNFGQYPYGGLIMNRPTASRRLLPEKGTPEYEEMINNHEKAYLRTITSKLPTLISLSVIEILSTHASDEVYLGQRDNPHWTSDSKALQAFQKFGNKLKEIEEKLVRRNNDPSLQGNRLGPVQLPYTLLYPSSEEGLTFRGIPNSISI
pIC50: −log10 of the molar value.
Everything with pIC50 lower than 5 is F; everything else, including exactly 5, is T.

Solved entries:
Sc1nnc(/C=C/c2ccc(Br)cc2)n1-c1ccccc1 : F
C(=C\c1nnc(Nc2ccccc2)o1)/c1ccccc1 : F
CC(=O)Oc1ccc(/C=C/c2nnc(S)n2-c2ccccc2)cc1 : T

Then there is this compound:
Request: Tell me whether pIC50 is at least 5 here: Fc1ccc(/C=C/c2nnc(Nc3ccccc3)o2)cc1
Result: F

====

experimental protocol: Interaction with the stable free radical DPPH (reducing activity)
condition summary: 20 min
quantity: RA % 100 μM 20 min (%)
Give your result in % as a bare value.

Sc1nnc(/C=C/c2ccc(Cl)cc2)n1-c1ccccc1 [Compound 4b] : 33

Request: RA % 100 μM 20 min lookup needed for O=C(/C=C/c1ccc(F)cc1)NNC(=S)Nc1ccccc1 [Compound 3c] , thanks.
Result: 90

Request: Next entry: O=C(C=Cc1ccccc1)NNC(=S)Nc1ccccc1 [Compound 3a]
Result: 61

Request: Follow-up entry: Fc1ccc(/C=C/c2nnc(S)n2-c2ccccc2)cc1 [Compound 4c]
Result: 82
